tested on: Plasmodium falciparum; assay: Primary screen in NF54 nanoGlo assay, in single point, at 2uM, 72h; format: functional, Erythrocyte; conditions: timepoint 72 hour
The whole screen tested about 150,000 compounds, of which about 540 (0.36%) showed an effect of 50% or more. Only a selection was taken, and strong results are over-represented in it overall.
Would you mind labelling by Z score? At or over -0.7 is 1 (yes), under is 0 (no).

>>> answer_label("COc1cc(F)c(C(C)NC2C[C@@H]3COC[C@H]23)cc1OC (stereo partly specified)")
"1 (yes)"
>>> answer_label("Oc1nc(N2CCOC3(CCCC3)C2)ncc1F")
"0 (no)"
>>> answer_label("CCOc1cccc(CN2CCC(C)(c3noc(C4CCOCC4)n3)CC2)c1")
"1 (yes)"
>>> answer_label("O=C(O)C[C@@H]1CN(C(=O)c2ccc3c(c2)OCO3)C[C@@H]1c1c[nH]nn1")
"1 (yes)"
>>> answer_label("OCCOc1cncc(N2CCOC3(CCCCCC3)C2)n1")
"1 (yes)"

====

system: Plasmodium falciparum; experiment: Primary screen in NF54 nanoGlo assay, in single point, at 2uM, 72h; format: functional, Erythrocyte; conditions: timepoint 72 hour
Out of some 150,000 compounds screened, about 540 (0.36%) showed an effect of 50% or more. Many of the other results were omitted from the sample, so strong results are more common in it than they were.
READOUT_TYPE: % Inhibition (%)

>>> observed_result("O=C(NC[C@]12C[C@H]1COC21CCC1)c1ncoc1-c1ccon1")
5
>>> observed_result("Nc1c2c(-c3ccc(F)cc3)nc(NCCN3CCCCC3)nc2nn1-c1ccc(Cl)cc1")
-19
>>> observed_result("Cc1nc2cc(NC(=O)[C@@]3(C)CCCN(C(=O)c4ccccc4)C3)ccc2o1")
55
>>> observed_result("Cc1nnc(C(C)NC(=O)C2(C)CCCN(C(=O)c3ccccc3)C2)o1 (stereo not given)")
-7
>>> observed_result("CCc1ccc(CN2CCC[C@H](c3ncc[nH]3)C2)nc1")
65
>>> observed_result("C[C@]1(C(=O)Nc2cn[nH]c2)CCCN(C(=O)c2ccccc2)C1")
-8
>>> observed_result("Cc1[nH]c(CN2CCC[C@H](c3ncc[nH]3)C2)cc1C#N")
-1
>>> observed_result("Cc1c(C(=O)[C@H](C#N)c2nnc(N3CCOCC3)n2-c2ccccc2)nnn1-c1ccc(F)cc1")
-7
>>> observed_result("CC(C)(C)n1nc2nc(NCCN3CCCCC3)nc(-c3ccc(F)c(Cl)c3)c2c1N")
75
>>> observed_result("CC(C)CN1CCCC1C(=O)N1CCO[C@H]2CCC[C@H]21 (stereo not given in full)")
-5

====

Entries and their measured % Inhibition follow.
tested on: Plasmodium falciparum; experiment: Primary screen in NF54 nanoGlo assay, in single point, at 2uM, 72h; format: functional, Erythrocyte; details: timepoint 72 hour
Hit rate of the full screen: of about 150,000 compounds, about 540 (0.36%) showed an effect of 50% or more. Only a selection was taken, and strong results are over-represented in it overall.
READOUT_TYPE: % Inhibition (%)

>>> observed_result("COc1ccc(CCc2nc(NC(=O)c3nc(C)sc3C)n[nH]2)cc1OC")
71
>>> observed_result("Cn1cnnc1CNC[C@H](O)c1ccc(Cl)cc1")
-8
>>> observed_result("COc1ccc(C(=O)N2c3ncnn3C(c3ccccc3)CC2c2ccc(C)cc2)cc1OC (stereo unspecified)")
76
>>> observed_result("O=C(O)c1cc(NS(=O)(=O)c2cc(F)ccc2F)ccc1N1CCCCCC1")
-4
>>> observed_result("COc1ccc(-c2cncc(CN3CCCC3)c2)cc1OC")
-9
>>> observed_result("COc1ccc2c(c1)C(N1CCN(C(=O)CC(C)(C)C)CC1)=Nc1ccccc1O2")
1
>>> observed_result("Cc1ccc(-n2nnnc2C2(NC(C)C)CCCC2)cc1")
-3
>>> observed_result("Cc1cc(NC(=O)c2ccc(Cl)c(F)c2)nc(=O)[nH]1")
-4
>>> observed_result("Cc1cccnc1[C@H](C)NC(=O)CNC(=O)N(C)C")
-9
>>> observed_result("O=C(NCCc1n[nH]c(=O)[nH]1)c1c(F)cc(Br)cc1F")
-3
>>> observed_result("CC(C)(C)OC(=O)N1CCC[C@@H]1CNC1CC1")
-7
>>> observed_result("CCc1nc(CCNC(=O)Cc2sc(N)nc2C)no1")
-22
>>> observed_result("NC(=O)[C@@H]1CCCCN1C(=O)c1ccnc(-n2cccn2)c1")
12
>>> observed_result("Cc1csc(S(=O)(=O)N2CC[C@H](n3cccn3)C2)c1")
82
>>> observed_result("O=C1NCCN1CCN1CCc2[nH]ncc2C1")
-10
>>> observed_result("OC1(c2csc(CN3CCOCC3)n2)CCN(Cc2ccccn2)CC1")
-9
>>> observed_result("Cc1cc(-c2cncc(CN3CCCCC3)c2)ccc1F")
50
>>> observed_result("N[C@H]1CC2(CCC2)Oc2ccc(Br)cc21")
-4
>>> observed_result("Cc1ccc(-n2nc(C)cc2NS(=O)(=O)c2c(C)nn(C(C)C)c2C)nn1")
-9
>>> observed_result("CC[C@H]1CCCCCN1C(=O)c1ccnc(OC2CCC2)c1")
-5
>>> observed_result("CCN1CCN(C(=O)c2cnc(-c3ccc(F)cc3)nc2N(C)C)CC1")
3
>>> observed_result("O=C(Nc1[nH]c(=O)ncc1F)c1cc(F)c(F)cc1Br")
91
>>> observed_result("Cc1ccn2c(C(=O)NCc3cc(F)ccc3C)nnc2n1")
-17
>>> observed_result("CCC(=O)N1c2ncnn2C(c2ccc(C)cc2)CC1c1ccccc1 (stereo unspecified)")
3
>>> observed_result("CN1CCC(N(CCc2ccccc2)C(=O)c2cccc3cnccc23)CC1")
-4
>>> observed_result("O=C(N[C@H]1C[C@@H]2C[C@H]1N(C(=O)c1ccccc1C(F)(F)F)C2)c1cccnc1")
35
>>> observed_result("COc1ccc(C2CC(c3ccc(C)cc3)n3ncnc3N2C(=O)c2ccccc2)cc1 (stereo unspecified)")
32
>>> observed_result("O=C(Nc1[nH]c(=O)ncc1F)c1cccc2ccccc12")
85
>>> observed_result("Cc1noc(C)c1C(=O)N1CCC[C@H](Oc2ncc(Cl)cn2)C1")
-3
>>> observed_result("CCc1nnc(NCC(C)(C)CCS(C)(=O)=O)c(C#N)c1CC")
2
>>> observed_result("Cc1oc(-c2ccn[nH]2)cc1S(=O)(=O)Nc1cccc(Cl)c1")
59
>>> observed_result("COCCNC(=O)c1coc(CN2C(=O)COc3ccc(C(=O)COc4ccccc4)cc32)n1")
-6
>>> observed_result("COc1ccc(CCc2nc(NC(=O)[C@H]3CC(=O)N(C)C3)n[nH]2)cc1OC")
15
>>> observed_result("Cc1cnc(=O)n(CC(=O)N2CCN(c3ccccc3F)CC2)c1")
-1
>>> observed_result("COCC(O)CN1CCCC(C(C)C)CC1 (stereo unspecified)")
-5
>>> observed_result("Cc1ccc(C(=O)C[n+]2cc(-c3ccc(Br)cc3)n(C)c2N)cc1")
38
>>> observed_result("Cc1ccncc1CN(C)C(=O)[C@]1(O)CCc2cc(Br)ccc2C1")
-5
>>> observed_result("CC(C)C[C@H]1CCCN(CC(=O)N2CC(=O)Nc3ccccc32)C1")
-1
>>> observed_result("COc1cc(C(=O)Nc2[nH]c(=O)ncc2F)ccc1Cl")
76
>>> observed_result("C#CCCCCC(=O)Nc1ccc(C#N)cn1")
4
>>> observed_result("Cc1cc(C)c(S(=O)(=O)N2CC[C@H](n3cccn3)C2)s1")
-1
>>> observed_result("O=C(CN1C(=O)CCC1=O)N1CCN(S(=O)(=O)c2ccc(Br)cc2)CC1")
-14
>>> observed_result("COc1ccc2c(c1)[n+](CC(=O)c1ccc(-c3ccc(Br)cc3)cc1)c(CO)n2C")
70
>>> observed_result("O=C(CCCn1cccn1)NS(=O)(=O)c1ccc2ccccc2c1")
-7
>>> observed_result("CC(C)(C)c1nc(CNc2ccc(S(=O)(=O)CCO)cc2)no1")
52
>>> observed_result("COc1cccc(C(=O)C[n+]2cc(-c3ccc(Br)cc3)n(C)c2N)c1")
35
